System: 186277-243-T-J2-PDC spheroids with HUVEC/MSC, viability
ASSAY OVERVIEW: Anticancer human tumor 186277-243-T-J2-PDC patient-derived colon adenocarcinoma cell line growth inhibition [CLK]
TEST PARAMETERS: second compound 3.16 µM; first compound 0.03 µM; active compounds read low
READOUT TYPE: viability, T/C

// for each compound below, give its viability, T/C
1. NC(=O)C(=Cn1cnc(-c2cc(C(F)(F)F)cc(C(F)(F)F)c2)n1)c1cncnc1 + CN1CCN(c2cc(C(=O)Nc3cc4cc(-c5cnn(C)c5)ccc4cn3)ccn2)CC1
2. CC(C)CC(NC(=O)C(Cc1ccccc1)NC(=O)c1cnccn1)B(O)O (stereo unspecified) + CNC(=O)c1ccc(Nc2nc(OC3CCCC3)c3c(-c4ccc5nc(C)oc5c4)c[nH]c3n2)c(OC)c1
3. C=CC(=O)Nc1cc(Nc2nccc(-c3cn(C)c4ccccc34)n2)c(OC)cc1N(C)CCN(C)C + CN1CCN(c2cc(C(=O)Nc3cc4cc(-c5cnn(C)c5)ccc4cn3)ccn2)CC1

Reply:
1.29%
2.14%
0.98%

// for each compound below, give its viability, T/C
1. CC(C)CC(NC(=O)C(Cc1ccccc1)NC(=O)c1cnccn1)B(O)O (stereo unspecified) + CN1CCN(c2cc(C(=O)Nc3cc4cc(-c5cnn(C)c5)ccc4cn3)ccn2)CC1
2. NC(=O)C(=Cn1cnc(-c2cc(C(F)(F)F)cc(C(F)(F)F)c2)n1)c1cncnc1 + CNC(=O)c1ccc(Nc2nc(OC3CCCC3)c3c(-c4ccc5nc(C)oc5c4)c[nH]c3n2)c(OC)c1
3. C=CC(=O)Nc1cc(Nc2nccc(-c3cn(C)c4ccccc34)n2)c(OC)cc1N(C)CCN(C)C + CNC(=O)c1ccc(Nc2nc(OC3CCCC3)c3c(-c4ccc5nc(C)oc5c4)c[nH]c3n2)c(OC)c1

Reply:
1. 1.62%
2. 24.6%
3. 28.6%

* * *

Tested on: 186277-243-T-J2-PDC spheroids with HUVEC/MSC, viability
ASSAY OVERVIEW: Anticancer human tumor 186277-243-T-J2-PDC cell line growth inhibition [CLK];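 further: compound exposure lasted seven days before readout; 100% = DMSO vehicle control wells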
TEST PARAMETERS: second compound 0.1 µM; first compound 0.3 µM; active compounds read low
Doc: threshold 2% (exclusive). Items with viability, T/C beneath it return fulfilled; others return not fulfilled.

Answered cases to consult:
compound="CC(C)CC(NC(=O)C(Cc1ccccc1)NC(=O)c1cnccn1)B(O)O (stereo unspecified) + CN1CCN(c2cc(C(=O)Nc3cc4cc(-c5cnn(C)c5)ccc4cn3)ccn2)CC1" class_assignment=fulfilled
compound="CC(C)CC(NC(=O)C(Cc1ccccc1)NC(=O)c1cnccn1)B(O)O (stereo unspecified) + CNC(=O)c1ccc(Nc2nc(OC3CCCC3)c3c(-c4ccc5nc(C)oc5c4)c[nH]c3n2)c(OC)c1" class_assignment="not fulfilled"

Ask: Is viability, T/C of C=CC(=O)Nc1cc(Nc2nccc(-c3cn(C)c4ccccc34)n2)c(OC)cc1N(C)CCN(C)C + CN1CCN(c2cc(C(=O)Nc3cc4cc(-c5cnn(C)c5)ccc4cn3)ccn2)CC1 strictly below 2%?
Reply: not fulfilled

Ask: Could you do the same for C=CC(=O)Nc1cc(Nc2nccc(-c3cn(C)c4ccccc34)n2)c(OC)cc1N(C)CCN(C)C + CNC(=O)c1ccc(Nc2nc(OC3CCCC3)c3c(-c4ccc5nc(C)oc5c4)c[nH]c3n2)c(OC)c1 , please?
Reply: not fulfilled

Ask: Could you do the same for NC(=O)C(=Cn1cnc(-c2cc(C(F)(F)F)cc(C(F)(F)F)c2)n1)c1cncnc1 + CNC(=O)c1ccc(Nc2nc(OC3CCCC3)c3c(-c4ccc5nc(C)oc5c4)c[nH]c3n2)c(OC)c1 , please?
Reply: not fulfilled

Ask: Could you do the same for NC(=O)C(=Cn1cnc(-c2cc(C(F)(F)F)cc(C(F)(F)F)c2)n1)c1cncnc1 + CN1CCN(c2cc(C(=O)Nc3cc4cc(-c5cnn(C)c5)ccc4cn3)ccn2)CC1 , please?
Reply: fulfilled
